This section presents sequences with their documented self-splicing fitness (ln) values.
measurementProtocol: self-splicing fitness, log relative to wild type (ln ratio); higher = more splicing; Tetrahymena group I intron in knt gene, E. coli kanamycin selection, DiMSum; sequences stand for … in CUCUCU…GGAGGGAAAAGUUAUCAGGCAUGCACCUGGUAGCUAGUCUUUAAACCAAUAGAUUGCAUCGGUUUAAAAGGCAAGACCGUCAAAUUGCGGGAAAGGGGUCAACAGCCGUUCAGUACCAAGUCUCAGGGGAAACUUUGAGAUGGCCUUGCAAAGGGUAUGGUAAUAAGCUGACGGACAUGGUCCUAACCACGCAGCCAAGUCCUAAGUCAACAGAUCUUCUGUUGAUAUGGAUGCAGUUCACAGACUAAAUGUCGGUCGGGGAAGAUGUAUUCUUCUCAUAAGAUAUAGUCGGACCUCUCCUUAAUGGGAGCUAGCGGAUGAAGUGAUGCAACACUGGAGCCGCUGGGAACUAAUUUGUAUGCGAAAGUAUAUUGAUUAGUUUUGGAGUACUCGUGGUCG;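 note: selection with 25 µg/mL kanamycin versus none on LB agar overnight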
reportedConditions: 37 °C

self-splicing fitness (ln) reading for ACAAAGCAAUAUUACGUUCG : -0.0172

self-splicing fitness (ln) reading for UCGCAGCAAUAUUACGCUGA : -1.15

self-splicing fitness (ln) reading for CAAUAGCAAUAUUACGCUUC : -2.95

self-splicing fitness (ln) reading for GCCAAGCAAUAUUACGUGAC : -0.468

self-splicing fitness (ln) reading for AUACAGCAAUAUUACGUGUA : -1.32

Provenance of the data: the supplement of paper PMC7877785
